This collection of values is drawn from paper PMC3454369.

Please provide measured IC50 for the entries that follow.
Give just the number in nM; leave the unit off.

Find IC50 (p110β (Homo sapiens)) for the entry Cc1cc(NC(=O)CCNC(=O)Nc2nc(C)c(-c3ccc(-n4cccn4)cc3)s2)no1 [NVS-PI3-3]
600

Find IC50 (p110β (Homo sapiens)) for the entry CC(=O)c1ccc(-c2sc(NC(=O)NCCC(=O)NC(C)(C)C)nc2C)cc1 [NVS-PI3-4]
250

* * *

Please provide measured IC50 for the entries that follow.
- target-or-test-system: p110δ (Homo sapiens)
- Sequence (O00329 whole entry, species assumed, one chain of several): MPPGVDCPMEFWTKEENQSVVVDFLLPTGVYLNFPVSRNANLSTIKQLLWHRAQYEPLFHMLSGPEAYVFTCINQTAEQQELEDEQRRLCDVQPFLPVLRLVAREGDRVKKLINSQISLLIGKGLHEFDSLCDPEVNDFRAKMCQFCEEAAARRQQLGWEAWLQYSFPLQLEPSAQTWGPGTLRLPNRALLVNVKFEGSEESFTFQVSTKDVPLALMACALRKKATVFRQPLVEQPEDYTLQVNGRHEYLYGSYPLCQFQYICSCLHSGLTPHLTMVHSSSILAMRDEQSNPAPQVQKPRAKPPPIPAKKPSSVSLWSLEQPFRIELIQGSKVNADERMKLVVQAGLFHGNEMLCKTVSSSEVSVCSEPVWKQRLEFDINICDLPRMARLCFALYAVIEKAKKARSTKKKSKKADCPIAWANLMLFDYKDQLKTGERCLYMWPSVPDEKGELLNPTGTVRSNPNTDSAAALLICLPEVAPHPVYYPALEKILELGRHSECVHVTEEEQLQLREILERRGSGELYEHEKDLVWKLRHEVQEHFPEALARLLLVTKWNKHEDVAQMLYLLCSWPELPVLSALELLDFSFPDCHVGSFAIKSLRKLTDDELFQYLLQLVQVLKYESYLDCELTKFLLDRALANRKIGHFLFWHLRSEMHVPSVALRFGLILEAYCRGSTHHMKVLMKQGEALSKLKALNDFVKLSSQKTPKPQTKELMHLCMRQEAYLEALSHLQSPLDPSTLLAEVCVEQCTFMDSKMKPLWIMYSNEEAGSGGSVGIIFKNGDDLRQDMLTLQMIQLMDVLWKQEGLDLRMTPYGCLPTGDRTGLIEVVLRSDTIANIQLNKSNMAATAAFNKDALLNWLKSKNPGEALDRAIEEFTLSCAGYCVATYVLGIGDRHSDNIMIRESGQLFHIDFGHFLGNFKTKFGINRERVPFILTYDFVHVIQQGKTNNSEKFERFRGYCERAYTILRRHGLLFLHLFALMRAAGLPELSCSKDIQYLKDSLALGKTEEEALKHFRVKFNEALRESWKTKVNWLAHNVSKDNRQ
- experiment-description: biochemical
Give just the number in nM; leave the unit off.

Could you share which IC50 value was measured for `Cc1cc(NC(=O)CCNC(=O)Nc2nc(C)c(-c3ccc(-n4cccn4)cc3)s2)no1` ?
3

Could you share which IC50 value was measured for `CC(=O)c1ccc(-c2sc(NC(=O)NCCC(=O)NC(C)(C)C)nc2C)cc1` ?
750

* * *

- target-or-test-system: p110α (Homo sapiens)
- Sequence (P42336 whole entry, species assumed): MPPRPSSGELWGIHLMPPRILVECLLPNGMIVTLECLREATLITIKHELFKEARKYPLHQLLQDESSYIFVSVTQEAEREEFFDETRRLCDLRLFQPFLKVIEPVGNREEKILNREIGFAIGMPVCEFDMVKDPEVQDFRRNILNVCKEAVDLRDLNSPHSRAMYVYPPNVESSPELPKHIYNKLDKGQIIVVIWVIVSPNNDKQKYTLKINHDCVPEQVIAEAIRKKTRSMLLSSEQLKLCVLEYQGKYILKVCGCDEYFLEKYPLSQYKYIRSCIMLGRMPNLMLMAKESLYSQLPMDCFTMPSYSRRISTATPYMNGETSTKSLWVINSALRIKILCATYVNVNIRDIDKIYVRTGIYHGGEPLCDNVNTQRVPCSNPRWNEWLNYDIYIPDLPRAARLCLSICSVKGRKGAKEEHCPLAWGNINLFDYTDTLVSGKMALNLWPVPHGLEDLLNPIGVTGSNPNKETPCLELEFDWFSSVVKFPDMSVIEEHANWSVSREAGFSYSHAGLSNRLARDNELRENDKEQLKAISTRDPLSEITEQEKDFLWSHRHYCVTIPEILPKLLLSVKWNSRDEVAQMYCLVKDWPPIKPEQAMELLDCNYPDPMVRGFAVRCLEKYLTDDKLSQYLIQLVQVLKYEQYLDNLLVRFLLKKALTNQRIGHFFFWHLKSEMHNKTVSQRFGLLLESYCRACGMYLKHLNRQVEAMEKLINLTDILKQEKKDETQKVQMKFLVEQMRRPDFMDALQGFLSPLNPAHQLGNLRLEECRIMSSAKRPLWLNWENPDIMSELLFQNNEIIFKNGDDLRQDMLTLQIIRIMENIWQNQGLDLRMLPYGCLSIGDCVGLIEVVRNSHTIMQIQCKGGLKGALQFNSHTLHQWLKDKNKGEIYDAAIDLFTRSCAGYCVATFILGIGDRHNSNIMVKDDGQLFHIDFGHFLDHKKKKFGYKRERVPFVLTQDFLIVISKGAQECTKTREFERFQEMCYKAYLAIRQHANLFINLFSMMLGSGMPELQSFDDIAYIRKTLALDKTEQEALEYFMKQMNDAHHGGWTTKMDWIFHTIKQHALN
- Sequence (P27986 whole entry partner, species assumed): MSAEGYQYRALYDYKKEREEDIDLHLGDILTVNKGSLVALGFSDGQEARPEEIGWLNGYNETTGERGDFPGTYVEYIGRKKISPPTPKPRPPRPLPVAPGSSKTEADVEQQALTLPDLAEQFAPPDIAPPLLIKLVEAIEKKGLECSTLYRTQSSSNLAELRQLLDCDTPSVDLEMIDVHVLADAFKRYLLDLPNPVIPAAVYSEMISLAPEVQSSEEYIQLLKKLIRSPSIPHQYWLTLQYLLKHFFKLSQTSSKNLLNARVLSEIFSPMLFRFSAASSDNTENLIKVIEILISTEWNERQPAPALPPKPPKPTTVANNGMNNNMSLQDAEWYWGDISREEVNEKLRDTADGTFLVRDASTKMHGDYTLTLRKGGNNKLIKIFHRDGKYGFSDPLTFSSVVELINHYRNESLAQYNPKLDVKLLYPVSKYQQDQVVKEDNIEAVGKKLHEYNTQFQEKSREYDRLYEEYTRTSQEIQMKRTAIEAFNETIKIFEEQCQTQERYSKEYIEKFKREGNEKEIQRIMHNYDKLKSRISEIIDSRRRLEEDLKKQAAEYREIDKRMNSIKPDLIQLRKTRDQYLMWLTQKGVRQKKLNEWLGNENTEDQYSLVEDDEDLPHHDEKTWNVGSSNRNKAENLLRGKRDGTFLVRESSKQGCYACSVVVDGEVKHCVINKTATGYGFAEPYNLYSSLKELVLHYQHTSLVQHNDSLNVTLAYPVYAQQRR
- experiment-description: biochemical
attribute-measured: IC50 (µM)
Give just the number in µM; leave the unit off.

Find IC50 (p110α (Homo sapiens)) for the entry `Cc1cc(NC(=O)CCNC(=O)Nc2nc(C)c(-c3ccc(-n4cccn4)cc3)s2)no1`
0.18

Find IC50 (p110α (Homo sapiens)) for the entry `CC(=O)c1ccc(-c2sc(NC(=O)NCCC(=O)NC(C)(C)C)nc2C)cc1`
1.8
